System: P. falciparum female gametocytes
assayProtocol: P. falciparum Dual Gamete Formation Assay (PfDGFA), female readout (Pfs25-positive female gametes)
Type: cell-based, Plasmodium falciparum NF54
experimentalConditions: 2µM, 24h preincubation with gametocytes; replicate R4
Note to self: values exactly at 50% are 1.0. So % inhibition female (individual replicates) R4 at or above 50% is 1.0, below is 0.0.

> print(dat)
                          structureassmiles  labelvalue
1  CN(CCCNCc1ccc2ccccc2c1)CCCNCc1ccc2ccccc2c1.Cl         0.0
2  Nc1nc(N)c2c(ccc3[nH]c(-c4ccccc4Cl)nc32)n1         1.0
3  Clc1ccc(/N=C(/NCCCCCCCN/C(=N\c2ccc(Cl)cc2)Nc2ccc(Cl)cc2)Nc2ccc(Cl)cc2)cc1         1.0
4  Nc1nc(N)c2cc(NC(=O)c3ccc(Cl)c(Cl)c3)ccc2n1         1.0
5  Cl.N=C(N)NN=Cc1c2ccc(Cl)cc2c(Cl)c2ccc(Cl)cc12         1.0
